Answer each item with its documented GI50.
Test system: EKVX
Assay: NCI tumour cell line growth inhibition, 48 h
Activity calls are given as the source filed them. No stated cut-off is given here; in the data, active = GI50 up to about 1.1 µM and inactive = higher. Starred links: 1 amine or outer side, 2 acyl side, 3 side chain; linkers in the order of their positions; H or OH if unused. Positions of bridges follow the written chain, without caps; N, C: chain ends. Non-standard residues stand in square brackets, D forms with d. Residues, ends and D or L forms follow the SMILES beside them. Chains are numbered I, II in the order given. Actinocin(9to1) = Cc1c2oc3c(C)ccc(C(=O)[*:1])c3nc-2c(C(=O)[*:2])c(N)c1=O; NMeV = CN[CH](C(=O)O)C(C)C; Sar = CNCC(=O)O

Record excerpt, results attached:
>  <compound>
Cc1c2oc3c(C)ccc(C(=O)NC4C(=O)NC(Cc5ccc(O)cc5)C(=O)N5CCCC5C(=O)N(C)CC(=O)N(C)C(C(C)C)C(=O)OC4C)c3nc-2c(C(=O)NC2C(=O)NC(Cc3ccc(O)cc3)C(=O)N3CCCC3C(=O)N(C)CC(=O)N(C)C(C(C)C)C(=O)OC2C)c(N)c1=O (stereo unspecified) (I: TYP[Sar][NMeV] / II: TYP[Sar][NMeV]; ester I:1-I:C, II:1-II:C; linker I:N-II:N via Actinocin(9to1); configuration not given here)

>  <testedTarget>
EKVX

>  <GI50>
70.5 µM (inactive)

$$$$
>  <compound>
COc1cc2ccccc2c2cc([N+](=O)[O-])oc12

>  <testedTarget>
EKVX

>  <GI50>
4.19 µM (inactive)

$$$$
>  <compound>
COC(=O)[C@@]1(Cc2ccc(O)cc2)C[C@@H]2Cc3ccccc3N2N1

>  <testedTarget>
EKVX

>  <GI50>
64.7 µM (inactive)

$$$$

For each of the compounds below, note its GI50.
1. C[C@]12CC[C@@H]3c4ccc(OCC(=O)O)cc4CC[C@H]3[C@@H]1CCC2=O
2. CC(C)(C)N/N=C(/Cc1nc2c3c(ccc2nc1O)C(=O)c1ccccc1C3=O)C(=O)NC1=C(Cl)C(=O)c2ccccc2C1=O
3. CCCNC(=O)C1C(=O)C(=O)N(CCC)C1=O (stereo unspecified)

A)
1. > 100 µM (inactive)
2. 61.2 µM (inactive)
3. > 100 µM (inactive)

* * *

Tested on: SK-MEL-5
Assay: NCI tumour cell line growth inhibition, 48 h
Calls of active or inactive are those of the source. No stated cut-off is given here; in the data, active = GI50 up to about 1.1 µM and inactive = higher.
propertyLabel: GI50

Worked cases, answers included:
>  <compound>
COc1ccc(CCc2ccccc2CC(=O)O)cc1

>  <propertyLabel>
GI50

>  <endpointResult>
> 100 µM (inactive)

$$$$
>  <compound>
C=C1C[C@H](O)[C@H]2C(C[Se]c3ccccc3)C(=O)O[C@@H]2[C@H]2[C@H](C)C(O)C[C@@H]12 (some centres not stated)

>  <propertyLabel>
GI50

>  <endpointResult>
33.6 µM (inactive)

$$$$
>  <compound>
Cc1ccc(C2OC(COCc3ccc(Cl)cc3)C(OCc3ccc(Cl)cc3)C2O)cc1 (configuration not stated)

>  <propertyLabel>
GI50

>  <endpointResult>
12.1 µM (inactive)

$$$$
>  <compound>
O=C(O)COc1ccc(C(=O)/C(SS/C(C(=O)c2ccc(OCC(=O)O)c(Cl)c2Cl)=C2\C=C(c3ccc(Br)cc3)SS2)=C2/C=C(c3ccc(Br)cc3)SS2)c(Cl)c1Cl

>  <propertyLabel>
GI50

>  <endpointResult>
11.9 µM (inactive)

$$$$
>  <compound>
COc1ccc2c(c1)CCCN1CCc3ccccc3C21 (configuration not stated)

>  <propertyLabel>
GI50

>  <endpointResult>
33.8 µM (inactive)

$$$$

Give GI50 for each listed item.
1. Cc1ccc(C2(C)CC/C(=N/N=C3/CCC(C)(c4ccc(C)c(C)c4)c4cc(C)c(C)cc43)c3cc(C)c(C)cc32)cc1C (configuration not stated)
2. COc1cccc2c1-c1c(OC)cccc1SS2

A)
1: > 100 µM (inactive); 2: 13.6 µM (inactive)
